System: Penicillium
PROTOCOL SUMMARY: Antimicrobial activity against Penicillium wild strain by agar cup diffusion method
Format: functional
QUANTITY NAME: MFC (µg/mL)
Write it as a number; the unit µg/mL goes unstated.

Some compounds with recorded MFC:
INSERT INTO assay_data (input_smiles, measurement_units, reported_result) VALUES
  ('COc1ccc(/C=C/C(=O)C2C(=O)NC(=S)NC2=O)cc1', 'µg/mL', 500),
  ('O=C(/C=C/c1ccc([N+](=O)[O-])cc1)C1C(=O)NC(=S)NC1=O', 'µg/mL', 500),
  ('O=C(/C=C/c1ccc2ccccc2c1)C1C(=O)NC(=S)NC1=O', 'µg/mL', 1000),
  ('O=C(/C=C/c1cccc([N+](=O)[O-])c1)C1C(=O)NC(=S)NC1=O', 'µg/mL', 1000);

Here is another compound to look at.
Data request: Supply recorded MFC for COc1ccc(/C=C/C(=O)C2C(=O)NC(=S)NC2=O)cc1OC here.
Data returned: 1000

All figures here come from ChEMBL document CHEMBL3044736.
